- test protocol: pKa of unformulated amine lipid by TNS fluorescence
- Assay type: physicochemical
- condition context: sodium phosphate buffer; Table 2; unformulated amine lipid, TNS; read-out: Lipid pKa
observation type: pKa

CCCCC/C=C\C/C=C\CCCCCCCC(=O)OCC(CCCCC(=O)OC(CCCCCC)CCCCCC)COC(=O)OCCCN(CC)CC (stereo not drawn)
6.13
CCCCC/C=C\C/C=C\CCCCCCCC(=O)OCC(COC(=O)CCCC(=O)OC(CCCCCCCC)CCCCCCCC)COC(=O)NCCN1CCCCCC1 (stereo not drawn)
6.6
CCCCCCCCC(CCCCCCCC)OC(=O)CCCC(=O)OCC(COC(=O)CCCC(=O)OC(CCCCCCCC)CCCCCCCC)OC(=O)NCCN(CC)CC
6.83
CCCCC/C=C\C/C=C\CCCCCCCC(=O)OCC(CCCCCCCCC(=O)OC(CCCCCCCC)CCCCCCCCC)COC(=O)CCC(CCCC)OC(=O)NCCN1CCCC1 (stereo not drawn)
6.75
CCCCC/C=C\C/C=C\CCCCCCCC(=O)OCC(COC(=O)CCCCCC(=O)OCC(CCCC)CCCCCC)COC(=O)OCCCN(CC)CC (stereo not drawn)
6.05
CCCCC/C=C\C/C=C\CCCCCCCC(=O)OCC(CCCCCCCCC(=O)OC(CCCCCCCC)CCCCCCCC)COC(=O)OCCCN(C)CC (stereo not drawn)
6.13

----------
- Tested on: rat TTR gene
- test protocol: In vivo editing of TTR in rat liver after LNP delivery (NGS, % editing)
- Design: species or system rat (Sprague-Dawley)
- condition context: Experiment 10, 0.1 mpk, LNP with PEG2K-DMG
observation type: Mean % editing (%)
Quick note: give the figure in %, leave out the unit.

Examples with answers:
CCCCC/C=C\C/C=C\CCCCCCCC(=O)OCC(COC(=O)CCC(OCCCCCCCC)OCCCCCCCC)COC(=O)OCCCN(CC)CC (centres unmarked)
44.2
CCCCC/C=C\C/C=C\CCCCCCCC(=O)OCC(COC(=O)CCCC(=O)OC(CCCCCCCC)CCCCCCCC)COC(=O)N(C)CCN(CC)CC (centres unmarked)
47.1
CCCCC/C=C\C/C=C\CCCCCCCC(=O)OCC(COC(=O)CCCC(=O)OC(CCCCCCCC)CCCCCCCC)COC(=O)NCCN1CCCCCC1 (centres unmarked)
53.1
CCCCC/C=C\C/C=C\CCCCCCCC(=O)OCC(COC(=O)CCCC(=O)OC(CCCCCCCC)CCCCCCCC)COC(=O)NCCN(CC)CC (centres unmarked)
56.5

I'm curious: which Mean % editing was measured for CCCCC/C=C\C/C=C\CCCCCCCC(=O)OCC(COC(=O)CCCC(=O)OC(CCCCCCCC)CCCCCCCC)COC(=O)OCCCN(CC)CC (centres unmarked) tested on rat TTR gene? 53.0

----------
- test protocol: pKa of unformulated amine lipid by TNS fluorescence
- Type: physicochemical
- condition context: read-out: pKa
observation type: pKa

CCCCCCCCC(CCCCCCCC)OC(=O)CCCCC(=O)OCC(COC(=O)CCCCC(=O)OC(CCCCCCCC)CCCCCCCC)COC(=O)NCCN(CC)CC [Compound 68]
6.4
CCCCCCCCC(CCCCCCCC)OC(=O)CCCCCCC(=O)OCC(CC)(COC(=O)CCCCCCC(=O)OC(CCCCCCCC)CCCCCCCC)COC(=O)NCCN(CC)CC [Compound 66]
6.1
CCCCCCCCC(CCCCCCCC)OC(=O)CCCCCCC(=O)OCC(CC)(COC(=O)CCCCCCC(=O)OC(CCCCCCCC)CCCCCCCC)COC(=O)OCCCN1CCCC1 [Compound 67]
6.2
CCCCCCCCC(CCCCCCCC)OC(=O)CCCCCC(=O)OCC(COC(=O)CCCCCC(=O)OC(CCCCCCCC)CCCCCCCC)COC(=O)OCCCN1CCCC1 [Compound 64]
6.4
CCCCCCCCC(CCCCCCCC)OC(=O)CCCCCCC(=O)OCC(COC(=O)CCCCCCC(=O)OC(CCCCCCCC)CCCCCCCC)COC(=O)OCCCN1CCCC1 [Compound 65]
6.4
CCCCCCCCC(CCCCCCCC)OC(=O)CCCCC(=O)OCC(COC(=O)CCCCC(=O)OC(CCCCCCCC)CCCCCCCC)COC(=O)OCCCN1CCCC1 [Compound 69]
6.4

----------
- Test system: rat TTR gene
- test protocol: In vivo editing of TTR in rat liver after LNP delivery (NGS, % editing)
- Parameters: species or system rat (Sprague-Dawley)
- condition context: Experiment 13, 0.03 mpk, LNP with PEG2K-DMG
Item-by-item account of Mean % editing
# output: bare number, implied unit %

Please state recorded Mean % editing (tested on rat TTR gene) of `CCCCCCCCC(CCCCCCCC)OC(=O)CCCCCCC(=O)OCC(COC(=O)CCCCCCC(=O)OC(CCCCCCCC)CCCCCCCC)COC(=O)OCCCN(CC)CC` 8.1

What Mean % editing appears in the records for this compound with rat TTR gene? `CCCCCCCCC(CCCCCCCC)OC(=O)CCCC(=O)OCC(COC(=O)CCCC(=O)OC(CCCCCCCC)CCCCCCCC)COC(=O)NCCN(CC)CC` 25.0

Which measured Mean % editing belongs to `CCCCCCCCC(CCCCCCCC)OC(=O)CCCCCCC(=O)OCC(COC(=O)CCCCCCC(=O)OC(CCCCCCCC)CCCCCCCC)COC(=O)NCCN(CC)CC` , tested on rat TTR gene? 9.0

Entry `CCCCCCCCC(CCCCCCCC)OC(=O)CCCCCCC(=O)OCC(COC(=O)CCCCCCC(=O)OC(CCCCCCCC)CCCCCCCC)COC(=O)NCCCN(CC)CC` , system rat TTR gene: what Mean % editing was measured? 0.2

Form field - read-out: Mean % editing; system: rat TTR gene; submitted item: CCCCC/C=C\C/C=C\CCCCCCCC(=O)OCC(COC(=O)CCC(OCCCCCCCC)OCCCCCCCC)COC(=O)OCCCN(CC)CC (centres unmarked) 8.5

----------
- System: rat TTR gene
- test protocol: In vivo editing of TTR in rat liver after LNP delivery (NGS, % editing)
- Set-up: species or system rat (Sprague-Dawley)
- condition context: Experiment 9, 0.1 mpk, LNP with PEG2K-DMG
Entries and their Mean % editing
Your answer is read as %, so omit the unit and give the number.

Some entries whose results are on file:
CCCCC/C=C\C/C=C\CCCCCCCC(=O)OCC(CCCCCCCCC(=O)OC(CCCCCC)CCCCCC)COC(=O)OCCCN(CC)CC (centres unmarked)
14.4
CCCCC/C=C\C/C=C\CCCCCCCC(=O)OCC(CCCCCCC(=O)OC(CCCC)CCCC)COC(=O)OCCCN(CC)CC (centres unmarked)
32.0

# get_value(readout='Mean % editing', item= CCCCC/C=C\C/C=C\CCCCCCCC(=O)OCC(CCCCCCC(=O)OC(CCCCCC)CCCCCC)COC(=O)OCCCN(CC)CC (centres unmarked) ) 34.4

Would you mind telling me what Mean % editing value was observed for CCCCC/C=C\C/C=C\CCCCCCCC(=O)OCC(CCCCC(=O)OC(CCCCCC)CCCCCC)COC(=O)OCCCN(CC)CC (centres unmarked) ? 35.8

Recorded Mean % editing for CCCCC/C=C\C/C=C\CCCCCCCC(=O)OCC(COC(=O)CCC(OCCCCCCCC)OCCCCCCCC)COC(=O)OCCCN(CC)CC (centres unmarked) , please? 42.6

// query Mean % editing value for entry CCCCC/C=C\C/C=C\CCCCCCCC(=O)OCC(CCCCC(=O)OC(CCCCCCCC)CCCCCCCC)COC(=O)OCCCN(CC)CC (centres unmarked) 15.1

Given the entry CCCCC/C=C\C/C=C\CCCCCCCC(=O)OCC(CCCCCCC(=O)OC(CCCCCCCC)CCCCCCCC)COC(=O)OCCCN(CC)CC (centres unmarked) , report its measured Mean % editing. 14.9

Find the recorded Mean % editing belonging to CCCCC/C=C\C/C=C\CCCCCCCC(=O)OCC(CCCCCCCCC(=O)OC(CCCCCCCC)CCCCCCCC)COC(=O)OCCCN(CC)CC (centres unmarked) and report it. 4.3

----------
- test protocol: LNP average particle size and polydispersity by dynamic light scattering
- Assay type: physicochemical
- condition context: Table 3, Experiments 1-13; LNP 50% ionizable lipid, 38% cholesterol, 9% DSPC, 3% PEG2K-DMG; sgRNA:mRNA 1:2
observation type: Number mean (nm)

CCCCCCCCC(CCCCCCCC)OC(=O)CCCCCCC(=O)OCC(COC(=O)CCCCCCC(=O)OC(CCCCCCCC)CCCCCCCC)COC(=O)OCCCN(CC)CC
78
CCCCC/C=C\C/C=C\CCCCCCCC(=O)OCC(CCCCC(=O)OC(CCCC)CCCC)COC(=O)NCCN(CC)CC (stereo not drawn)
101
CCCCCCCCOC(CCC(=O)OCC(COC(=O)CCC(OCCCCCCCC)OCCCCCCCC)COC(=O)NCCN(CC)CC)OCCCCCCCC
77
CCCCCCCCOC(CCC(=O)OCC(COC(=O)CCC(OCCCCCCCC)OCCCCCCCC)COC(=O)OCCCN(CC)CC)OCCCCCCCC
70
CCCCCCCCC(CCCCCCCC)OC(=O)CCCC(=O)OCC(COC(=O)CCCC(=O)OC(CCCCCCCC)CCCCCCCC)COC(=O)OCCCN1CCCC1
66
CCCCCCCCC(CCCCCCCC)OC(=O)CCCCCC(=O)OCC(CCCCCCCCC(=O)OCC(CCCC)CCCCCC)COC(=O)NCCN(CC)CC (stereo not drawn)
81
